Record form. Attribute: pIC50. Fill in for each entry.
systemTested: human NLRP3 (Homo sapiens, UniProt Q96P20)
Sequence (Q96P20 whole entry): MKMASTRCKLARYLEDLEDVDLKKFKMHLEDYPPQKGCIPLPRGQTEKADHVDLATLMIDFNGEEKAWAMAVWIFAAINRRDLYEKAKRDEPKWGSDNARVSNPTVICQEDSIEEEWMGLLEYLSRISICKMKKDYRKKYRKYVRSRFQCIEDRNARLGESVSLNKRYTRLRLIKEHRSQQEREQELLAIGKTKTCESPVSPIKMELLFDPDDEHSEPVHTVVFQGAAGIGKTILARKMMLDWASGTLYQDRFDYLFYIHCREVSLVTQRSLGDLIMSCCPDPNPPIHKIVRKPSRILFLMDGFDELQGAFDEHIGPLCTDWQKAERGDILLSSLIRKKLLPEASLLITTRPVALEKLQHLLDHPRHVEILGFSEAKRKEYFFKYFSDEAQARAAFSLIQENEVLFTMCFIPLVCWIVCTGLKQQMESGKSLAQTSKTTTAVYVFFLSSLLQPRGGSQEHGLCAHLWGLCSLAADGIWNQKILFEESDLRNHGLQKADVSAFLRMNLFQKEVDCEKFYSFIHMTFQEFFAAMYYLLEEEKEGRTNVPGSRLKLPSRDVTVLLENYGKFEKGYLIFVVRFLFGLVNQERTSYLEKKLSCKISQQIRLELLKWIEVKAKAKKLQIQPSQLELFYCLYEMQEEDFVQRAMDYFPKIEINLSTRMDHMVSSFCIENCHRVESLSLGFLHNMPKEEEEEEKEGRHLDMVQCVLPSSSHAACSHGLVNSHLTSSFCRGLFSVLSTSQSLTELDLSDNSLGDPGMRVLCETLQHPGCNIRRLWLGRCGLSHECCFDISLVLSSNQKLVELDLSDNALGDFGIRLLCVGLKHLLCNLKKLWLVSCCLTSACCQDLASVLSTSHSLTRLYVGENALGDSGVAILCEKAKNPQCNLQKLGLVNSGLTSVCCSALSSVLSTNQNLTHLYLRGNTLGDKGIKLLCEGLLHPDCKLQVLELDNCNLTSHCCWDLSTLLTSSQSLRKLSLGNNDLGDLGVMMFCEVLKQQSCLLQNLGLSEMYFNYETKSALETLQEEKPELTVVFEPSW
methodNotes: Human Whole Blood (hWB) NLRP3 Assay (IL-1β MSD)
Format: cell-based
conditionDescription: LPS 1 μg/ml 4.5 h, ATP 30 min, class symbols
pIC50: −log10 of the molar value.

INSERT INTO results (compound, systemtested, reportedvalue) VALUES
  ('CC1(C)C(=O)N(CC(=O)NCCCc2nnn[nH]2)c2c(F)cc(C3CC3)c(F)c21', 'human NLRP3 (Homo sapiens, UniProt Q96P20)', '6.00 to 6.30'),
  ('CC1(C)C(=O)N(CC(=O)NCCCC(=O)O)c2ccc(Br)c(F)c21', 'human NLRP3 (Homo sapiens, UniProt Q96P20)', '> 6.52');

Dear reader, for each entry below, please note its pIC50.
1. CC1(C)C(=O)N(CC(=O)NC[C@H](F)CC(=O)O)c2c(F)cc(C3CC3)c(F)c21 [Compound 62A]
2. C[C@H](CNC(=O)CN1C(=O)C(C)(C)c2c(F)c(C3CC3)cc(F)c21)CC(=O)O [Compound 61B]
3. CN(CCCC(=O)O)C(=O)CN1C(=O)C(C)(C)c2cc(Br)cc(O)c21
4. C[C@@H](CCC(=O)O)NC(=O)CN1C(=O)C(C)(C)c2cc(Br)cc(O)c21 [Compound 41B]

stdout:
1. 6.30 to 6.52
2. 6.00 to 6.30
3. < 6.00
4. < 6.00

Okay, here is my list. What is pIC50 for each of these?
1. CC1(C)C(=O)N(CC(=O)NCCCC(=O)O)c2c(O)cc(Br)cc21
2. CC1(C)C(=O)N(CC(=O)NCCCC(=O)O)c2c(O)cc(I)cc21
3. CC1(C)C(=O)N(CC(=O)NCCCC(=O)O)c2ccc(Cl)cc21
4. CC1(C)C(=O)N(CC(=O)NCCCC(=O)O)c2c(F)cc(C3CC3)cc21
5. CC1(C)C(=O)N(CC(=O)N[C@@H]2CCCN(c3nnn[nH]3)C2)c2ccc(Br)cc21 [Compound 11A]
6. CC1(C)C(=O)N(CC(=O)NCCCC(=O)O)c2c(O)cc(Cl)cc21

stdout:
1. 6.00 to 6.30
2. < 6.00
3. < 6.00
4. > 6.52
5. < 6.00
6. 6.30 to 6.52

Please go through the list and note pIC50 for each compound.
1. CC1(C)C(=O)N(CC(=O)NCCCc2nnn[nH]2)c2c(O)cc(C3CC3)cc21
2. CC1(C)C(=O)N(CC(=O)NCCCC(=O)O)c2ccc(Br)cc21
3. C[C@@H](CCC(=O)O)NC(=O)CN1C(=O)C(C)(C)c2c(F)c(C3CC3)cc(F)c21 [Compound 59A]

stdout:
< 6.00
< 6.00
6.30 to 6.52

# batch size: 2; output pIC50 per entry
1. CC1(C)C(=O)N(CC(=O)NCCCc2nnn[nH]2)c2ccc(Br)cc21
2. CC1(C)C(=O)N(CC(=O)NC2(CCC(=O)O)CCOC2)c2ccc(Br)cc21 (racemic)

stdout:
< 6.00
6.00 to 6.30

---

systemTested: human NLRP3 (Homo sapiens, UniProt Q96P20)
methodNotes: Human PBMC NLRP3 Assay (IL-1β release)
Format: cell-based
Set-up: Human PBMCs (Normal): iXCells Cat #10HU-003; host or cells: human PBMCs (normal donors), LPS-primed, nigericin-stimulated
conditionDescription: human PBMCs, LPS priming 4 h, nigericin stimulation 1 h; class symbols
pIC50: −log10 of the molar value.
Consider the following molecules; for each one, report its pIC50.

Field: example entries. Status: answers known.
INSERT INTO measurements (molecule, systemtested, reportedvalue) VALUES
  ('CC1(C)C(=O)N(CC(=O)NCCCC(=O)O)c2cc(O)c(Br)cc21', 'human NLRP3 (Homo sapiens, UniProt Q96P20)', '< 5.00'),
  ('Cc1ccc2c(c1)C(C)(C)C(=O)N2CC(=O)NCCCC(=O)O', 'human NLRP3 (Homo sapiens, UniProt Q96P20)', '5.00 to 6.00'),
  ('C[C@@H](CC(=O)O)[C@H](NC(=O)CN1C(=O)C(C)(C)c2c1ccc(C1CC1)c2F)C1CC1 (single isomer, unassigned) [Compound 60A*]', 'human NLRP3 (Homo sapiens, UniProt Q96P20)', '> 6.52'),
  ('CC1(C)C(=O)N(CC(=O)NCCCC(=O)O)c2ccc(C3CC3)c(F)c21', 'human NLRP3 (Homo sapiens, UniProt Q96P20)', '> 6.52'),
  ('CC1(C)C(=O)N(CC(=O)NCCCC(=O)O)c2ccc(C3CCCC3)cc21', 'human NLRP3 (Homo sapiens, UniProt Q96P20)', '< 5.00');

Provide reported pIC50 for each item, in the same order as listed.
1. CC1(C)C(=O)N(CC(=O)NC2(CCC(=O)O)CCOC2)c2ccc(Br)cc21 (racemic)
2. COc1cc(Br)cc2c1N(CC(=O)NCCCC(=O)O)C(=O)C2(C)C
3. CC(C)c1ccc2c(c1)C(C)(C)C(=O)N2CC(=O)NC(C)(C)CCC(=O)O
4. CC1(C)C(=O)N(CC(=O)NCCCC(=O)O)c2ccc(Br)cc21
5. CC1(C)C(=O)N(CC(=O)NCCCC(=O)O)c2ccc(Br)c(F)c21
6. O=C(O)CCCNC(=O)CN1C(=O)C2(CC2)c2cc(Br)ccc21
7. C[C@@H](CCC(=O)O)NC(=O)CN1C(=O)C(C)(C)c2cc(Br)cc(O)c21 [Compound 41B]

stdout:
1: > 6.52; 2: < 5.00; 3: 6.30 to 6.52; 4: > 6.52; 5: > 6.52; 6: 6.00 to 6.30; 7: > 6.52

Items follow; give pIC50 for each.
1. CC1(C)C(=O)N(CC(=O)NCC2(CC(=O)O)CC2)c2c(O)cc(Br)cc21
2. C[C@@H](CNC(=O)CN1C(=O)C(C)(C)c2cc(Br)cc(O)c21)CC(=O)O (single isomer, unassigned) [42A*]
3. CC1(C)C(=O)N(CC(=O)NCCCC(=O)O)c2ccc(I)cc21
4. C[C@@H](CC(=O)O)[C@@H](C)NC(=O)CN1C(=O)C(C)(C)c2c1ccc(C1CC1)c2F (single isomer, unassigned) [Compound 58A*]

stdout:
["> 6.52", "> 6.52", "> 6.52", "> 6.52"]
